Listed next: entries and their corresponding protein stability index.
Tested on: Saccharomyces cerevisiae;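 further: PSI is a weighted mean of sequencing reads over stability bins, variants kept only with over 10 reads, mCherry proximal and sfGFP distal, peptide attached via GGGS linker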
Experiment: protein stability index of tFT-peptide fusion (C-terminal peptide) (PSI (0-1 scale)); higher = more stable (slower turnover)
Details: genetic background: wild type; temperature: 30 C
PROPERTY_MEASURED: protein stability index

{"ENTRY_SEQUENCE": "GGMRGGYRGRCV", "OBS_VALUE": 0.679}
{"ENTRY_SEQUENCE": "NLKCRMSLKTLG", "OBS_VALUE": 0.705}
{"ENTRY_SEQUENCE": "DCPLPPRYRAPL", "OBS_VALUE": 0.691}
{"ENTRY_SEQUENCE": "LPPLPLPPATTP", "OBS_VALUE": 0.715}
{"ENTRY_SEQUENCE": "WFHSANLFLSLS", "OBS_VALUE": 0.705}
{"ENTRY_SEQUENCE": "VDLCRPLSRPTV", "OBS_VALUE": 0.703}
